# Test system: MCF-7 breast cancer cell line
# experimental.details: Cell viability, sulforhodamine B assay
# Format: cell-based
# experimental.context: Homo sapiens, MCF7, 72 h exposure, dilutions 12.5 to 100 μM, read-out: Cytotoxicity IC50, MCF-7
pIC50: −log10 of the molar value.
measurement.type: pIC50

1) CC1(C)CCCC2(C)C1CC(=O)C1(C)OC12 (stereo not drawn) ... 4.05
2) CC1(C)CCC[C@]2(C)[C@@H](C3OCCO3)C(C=O)=CC[C@@H]12 ... 4.01
3) CC1(C)CCC[C@]2(C)[C@@H](C=O)C(C=O)=CC[C@@H]12 ... 4.03
4) CC1(C)CCC[C@]2(C)[C@H](C=O)C(C=O)=CC[C@@H]12 ... < 3.70
5) CC(=O)O[C@H]1C[C@H]2C(C)(C)CCC[C@]2(C)[C@@H]2O[C@]12C ... < 3.70
6) CC(=O)O[C@H]1C[C@H]2C(C)(C)CCC[C@]2(C)C=C1C ... < 3.70
7) CC1=CC[C@H]2C(C)(C)CCC[C@]2(C)[C@H]1CO ... < 3.70
8) CC1(C)CCC[C@]2(C)[C@H](CO)C(CO)=CC[C@@H]12 ... < 3.70
9) CC1(C)CCC[C@]2(C)C3=C(CC[C@@H]12)COC3=O ... < 3.70
10) CC1(C)CCC[C@]2(C)[C@@H](CO)C(CO)=CC[C@@H]12 ... < 3.70
11) CC1(C)CCC[C@]2(C)[C@H]3O[C@@]3(C)C(=O)C[C@@H]12 ... < 3.70
12) CC1(C)CCC[C@]2(C)C3=C(CC[C@@H]12)C(=O)OC3 ... < 3.70
